Attribution: patent US20180251434A1

For each entry below, report its MIC value.
Tested on: K. Pneumoniae A-651
Assay: Bacterial growth minimal inhibitory concentration (broth microdilution, CLSI M7-A7)
Format: cell-based
Conditions: Klebsiella pneumoniae, cation-adjusted Mueller Hinton Broth, multiply-resistant (quinolone-resistant) strain
Entry rule: numbers only, all in µg/mL.

Record request: MIC value, item CNC1(C#CC#Cc2ccc3c(c2)oc(=O)n3CC[C@](C)(C(=O)NO)S(C)(=O)=O)CC1
0.25

// returns reported MIC for input C[C@@](CCn1c(=O)oc2cc(C#CC#CCOC(=O)N3CC(O)C3)ccc21)(C(=O)NO)S(C)(=O)=O
1

Could you tell me which MIC is on file for C[C@@](CCn1c(=O)oc2cc(C#CC#C[C@H]3C[C@]3(F)CO)ccc21)(C(=O)NO)S(C)(=O)=O ?
0.25

Give the measured MIC of CN1CC(C#CC#Cc2ccc3c(c2)sc(=O)n3CC[C@](C)(C(=O)NO)S(C)(=O)=O)C1 .
1

Query: MIC; subject: CC(CCn1c(=O)oc2cc(C#CC#CC3(O)COC3)ccc21)(C(=O)NO)S(C)(=O)=O (racemic)
8

Could you tell me which MIC is on file for C[C@@](CCn1c(=O)oc2cc(C#CC#CC3(N)CC3)ccc21)(C(=O)NO)S(C)(=O)=O ?
0.25

Please look up its MIC: C[C@@](CCn1c(=O)sc2cc(C#CC#C[C@H]3C[C@]3(F)CO)ccc21)(C(=O)NO)S(C)(=O)=O
0.25
